studySystem: human kisspeptin receptor (Homo sapiens (Human), UniProt Q969F8)
Sequence (Q969F8 whole entry): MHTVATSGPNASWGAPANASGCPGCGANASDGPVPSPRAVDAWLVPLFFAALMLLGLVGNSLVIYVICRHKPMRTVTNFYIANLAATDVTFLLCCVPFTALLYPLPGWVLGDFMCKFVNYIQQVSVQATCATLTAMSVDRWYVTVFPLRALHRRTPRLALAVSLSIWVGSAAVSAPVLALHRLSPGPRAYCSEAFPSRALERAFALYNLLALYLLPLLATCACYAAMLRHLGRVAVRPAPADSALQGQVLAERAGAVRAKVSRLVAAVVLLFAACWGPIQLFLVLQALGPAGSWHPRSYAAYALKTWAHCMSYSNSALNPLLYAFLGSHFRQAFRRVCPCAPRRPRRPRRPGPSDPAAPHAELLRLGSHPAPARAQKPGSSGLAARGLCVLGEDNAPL
assaySummary: Human KISS1R binding assay (membrane competition binding)
runParameters: 90 min at room temperature; competition with 0.2 nM [125I]-metastin (45-54); Flp-In T-Rex 293 kisspeptin membranes; metal complexes nonradioactive Ga, In, Lu; read-out: hKiSSR Binding Ki (90 min)
Experimental: Crude membrane fractions are prepared from Flp-In T-Rex 293 (Thermo Fisher) cell line expressing the human kisspeptin receptor. The cells are grown to 85-100% confluence on standard tissue culture dishes in Dulbecco's Modified Eagles Medium (DMEM) (Corning) supplemented with 10% FBS (Gemini), 1% penicillin-streptomycin-glutamine (Gibco), 500 μg/mL hygromycin, and 15 μg/mL blastacidin. […]
pKi: −log10 of the molar value. Square brackets hold non-standard residues; d marks the D form. Peptide text beside a SMILES is read from it. * marks the point of attachment. DOTA = O=C(O)CN1CCN(CC(=O)O)CCN(CC(=O)*)CCN(CC(=O)O)CC1; Gly(N-(3-F-4-Me-benzyl)) = Cc1ccc(CNCC(=O)*)cc1F; 4Pal = N[C@@H](Cc1ccncc1)C(=O)O; Cha = N[C@@H](CC1CCCCC1)C(=O)O; Api = NC1(C(=O)O)CCNCC1; Ahx = NCCCCCC(=O)O; azaGly = NNC(=O)O
measurementType: pKi

compound	pKi
Cc1ccc(CNCC(=O)N2CCC(NC(=O)[C@H](CC(C)C)NC(=O)NNC(=O)[C@H](CC3CCCCC3)NC(=O)[C@@H](NC(=O)[C@H](CC(N)=O)NC(=O)[C@@H](Cc3c[nH]c4ccccc34)NC(=O)[C@H](N)Cc3ccc(O)cc3)[C@@H](C)O)(C(=O)N[C@@H](Cc3c[nH]c4ccccc34)C(N)=O)CC2)cc1F [Compound 404] (H-[dY][dW]NT[Cha][azaGly]L[Api](Gly(N-(3-F-4-Me-benzyl)))W-NH2)	> 8.00

Quick one: pKi for Cc1ccc(CNCC(=O)N2CCC(NC(=O)[C@H](CC(C)C)NC(=O)NNC(=O)[C@H](Cc3ccccc3)NC(=O)[C@@H](NC(=O)[C@H](CC(N)=O)NC(=O)[C@@H](Cc3c[nH]c4ccccc34)NC(=O)[C@@H](Cc3c[nH]cn3)NC(=O)[C@@H](Cc3ccc(O)cc3)NC(=O)CCCCCNC(=O)CN3CCN(CC(=O)O)CCN(CC(=O)O)CCN(CC(=O)O)CC3)[C@@H](C)O)(C(=O)N[C@@H](Cc3ccncc3)C(N)=O)CC2)cc1F [Compound 107] ({DOTA-Ahx}-[dY][dH][dW]NTF[azaGly]L[Api](Gly(N-(3-F-4-Me-benzyl)))[4Pal]-NH2) ?
> 8.00

----------
The following molecules are listed with their measured pKi values.
studySystem: UniProt Q969F8
assaySummary: Human KISS1R binding assay (membrane competition binding)
runParameters: 90 min at room temperature; competition with 0.2 nM [125I]-metastin (45-54); Flp-In T-Rex 293 kisspeptin membranes; metal complexes nonradioactive Ga, In, Lu; read-out: hKiSSR Binding Ki (90 min)
pKi: −log10 of the molar value. Square brackets hold non-standard residues; d marks the D form. Peptide text beside a SMILES is read from it. * marks the point of attachment. DOTA = O=C(O)CN1CCN(CC(=O)O)CCN(CC(=O)*)CCN(CC(=O)O)CC1; Gly(N-(3-F-4-Me-benzyl)) = Cc1ccc(CNCC(=O)*)cc1F; Gly(Nα-4-MeO-benzyl) = COc1ccc(CNCC(=O)*)cc1; X9 = O=C(CCOCCOCCOCCOCCOCCOCCOCCOCCO)*; d2Nal = N[C@H](Cc1ccc2ccccc2c1)C(=O)O; NBzl(4-I)Gly = O=C(O)CNCc1ccc(I)cc1; 4Pal = N[C@@H](Cc1ccncc1)C(=O)O; 4Amb = NCc1ccc(C(=O)O)cc1; Api = NC1(C(=O)O)CCNCC1; Ahx = NCCCCCC(=O)O; azaGly = NNC(=O)O

Worked set:
molecule	pKi
CC(C)C[C@H](NC(=O)NNC(=O)[C@H](Cc1ccccc1)NC(=O)[C@@H](NC(=O)[C@H](CC(N)=O)NC(=O)[C@@H](Cc1ccc2ccccc2c1)NC(=O)[C@@H](Cc1ccc(O)cc1)NC(=O)CCCCCNC(=O)CN1CCN(CC(=O)O)CCN(CC(=O)O)CCN(CC(=O)O)CC1)[C@@H](C)O)C(=O)NC1(C(=O)N[C@H](Cc2c[nH]c3ccccc23)C(N)=O)CCN(C(=O)CNCc2ccc(I)cc2)CC1 [Compound 371] ({DOTA-Ahx}-[dY][d2Nal]NTF[azaGly]L[Api](NBzl(4-I)Gly)[dW]-NH2)	> 8.00
Cc1ccc(CNCC(=O)N2CCC(NC(=O)[C@H](CC(C)C)NC(=O)NNC(=O)[C@H](Cc3ccccc3)NC(=O)[C@@H](NC(=O)[C@H](CC(N)=O)NC(=O)[C@H](CCCCNC(=O)CN3CCN(CC(=O)O)CCN(CC(=O)O)CCN(CC(=O)O)CC3)NC(=O)CCOCCOCCOCCOCCOCCOCCOCCOCCO)[C@@H](C)O)(C(=O)N[C@@H](Cc3ccncc3)C(N)=O)CC2)cc1F [Compound 256] (X9-K(DOTA)NTF[azaGly]L[Api](Gly(N-(3-F-4-Me-benzyl)))[4Pal]-NH2)	> 8.00
Cc1ccc(CNCC(=O)N2CCC(NC(=O)[C@H](CC(C)C)NC(=O)NNC(=O)[C@H](Cc3ccccc3)NC(=O)CN3CCN(CC(=O)O)CCN(CC(=O)O)CCN(CC(=O)O)CC3)(C(=O)N[C@@H](Cc3c[nH]c4ccccc34)C(N)=O)CC2)cc1F [Compound 49] ({DOTA}-F[azaGly]L[Api](Gly(N-(3-F-4-Me-benzyl)))W-NH2)	< 7.00
Cc1ccc(CNCC(=O)N2CCC(NC(=O)[C@H](CC(C)C)NC(=O)NNC(=O)[C@H](Cc3ccccc3)NC(=O)[C@@H](NC(=O)[C@H](CC(N)=O)NC(=O)c3ccc(CNC(=O)CN4CCN(CC(=O)O)CCN(CC(=O)O)CCN(CC(=O)O)CC4)cc3)[C@@H](C)O)(C(=O)N[C@@H](Cc3ccc(O)cc3)C(N)=O)CC2)cc1F [Compound 205] ({DOTA-4Amb}-NTF[azaGly]L[Api](Gly(N-(3-F-4-Me-benzyl)))Y-NH2)	> 8.00

Below: the item to evaluate.
Quick one: pKi for COc1ccc(CNCC(=O)N2CCC(NC(=O)[C@H](CC(C)C)NC(=O)NNC(=O)[C@H](Cc3ccccc3)NC(=O)[C@@H](NC(=O)[C@H](CC(N)=O)NC(=O)[C@H](CCC(=O)O)NC(=O)CCCCCNC(=O)CN3CCN(CC(=O)O)CCN(CC(=O)O)CCN(CC(=O)O)CC3)[C@@H](C)O)(C(=O)N[C@@H](Cc3ccccc3)C(N)=O)CC2)cc1 [Compound 236] ({DOTA-Ahx}-ENTF[azaGly]L[Api](Gly(Nα-4-MeO-benzyl))F-NH2) ?
> 8.00
